These entries and their values trace back to patent US11306092B2.

molecular target: human TLR8 (Homo sapiens); assay: TLR8 inhibition reporter assay (HEK-Blue SEAP reporter); conditions: HEK-Blue cells overexpressing human TLR8; R848 15.9 μM; 22 hour incubation
property name: log10 of IC50 (log10 of the value in nM)
Values below are the log10 of the recorded IC50, with nM as the unit.

Input line: Reported log10 of IC50 for CCc1c(-c2ccc(OC)c(OC)c2)[nH]c2ccc(N3CCN(C4CCN(CC)CC4)CC3)cc12 [Example 163] : what is it?
Output line: 0.97

Input line: Continue with COc1ccc(-c2[nH]c3ccc(NC(=O)C4CNCCO4)cc3c2C(C)C)cc1OC (centres unmarked) [Example 15]
Output line: 0.53

====

Entries and their pIC50 values follow.
molecular target: human TLR9 (Homo sapiens); construct: host or cells: HEK-Blue cells; experiment: TLR9 inhibition reporter assay (HEK-Blue SEAP reporter); type: cell-based; conditions: HEK-Blue cells overexpressing human TLR9; ODN2006 5 nM; 22 hour incubation
The value called pIC50 is obtained by taking minus log10 of the concentration in mol/L.

Input line: Suppose we examine the compound COc1ccc(-c2[nH]c3ccc(N4CCC(OCCN(C)C)CC4)cc3c2C(C)C)cc1OC [Example 114] ; what pIC50 value has been reported?
Output line: 6.02

Input line: Please do the same for COc1ccc(-c2[nH]c3ccc(N4CCCC5CN(Cc6ccccc6)CC54)cc3c2C(C)C)cc1OC (stereo not drawn) [Example 118] as well.
Output line: 5.75

Input line: Same again, this time with CCc1c(-c2ccc(OC)c(OC)c2)[nH]c2ccc(N3CCC(OC4CCN(CC)CC4)CC3)cc12 [Example 188]
Output line: 6.01

Input line: Same for COc1ccc(-c2[nH]c3ccc(N4CCC(N)(CC#N)CC4)cc3c2C(C)C)cc1OC [Example 109]
Output line: 4.82

Input line: Please give the result for COc1ccc(-c2[nH]c3ccc(N4CCN(C5CCCN(C(C)C)CC5)CC4)cc3c2C(C)C)cc1OC (stereo not drawn) [Example 122] too.
Output line: 6.21

--- query ---
Input line: Record request: pIC50 value, item COc1ccc(-c2[nH]c3ccc(NC(=O)CCCN)cc3c2C(C)C)cc1OC [Example 12]
Output line: 5.25

====

Biological target: human TLR9 (Homo sapiens)
Sequence (Q9NR96 26-1032): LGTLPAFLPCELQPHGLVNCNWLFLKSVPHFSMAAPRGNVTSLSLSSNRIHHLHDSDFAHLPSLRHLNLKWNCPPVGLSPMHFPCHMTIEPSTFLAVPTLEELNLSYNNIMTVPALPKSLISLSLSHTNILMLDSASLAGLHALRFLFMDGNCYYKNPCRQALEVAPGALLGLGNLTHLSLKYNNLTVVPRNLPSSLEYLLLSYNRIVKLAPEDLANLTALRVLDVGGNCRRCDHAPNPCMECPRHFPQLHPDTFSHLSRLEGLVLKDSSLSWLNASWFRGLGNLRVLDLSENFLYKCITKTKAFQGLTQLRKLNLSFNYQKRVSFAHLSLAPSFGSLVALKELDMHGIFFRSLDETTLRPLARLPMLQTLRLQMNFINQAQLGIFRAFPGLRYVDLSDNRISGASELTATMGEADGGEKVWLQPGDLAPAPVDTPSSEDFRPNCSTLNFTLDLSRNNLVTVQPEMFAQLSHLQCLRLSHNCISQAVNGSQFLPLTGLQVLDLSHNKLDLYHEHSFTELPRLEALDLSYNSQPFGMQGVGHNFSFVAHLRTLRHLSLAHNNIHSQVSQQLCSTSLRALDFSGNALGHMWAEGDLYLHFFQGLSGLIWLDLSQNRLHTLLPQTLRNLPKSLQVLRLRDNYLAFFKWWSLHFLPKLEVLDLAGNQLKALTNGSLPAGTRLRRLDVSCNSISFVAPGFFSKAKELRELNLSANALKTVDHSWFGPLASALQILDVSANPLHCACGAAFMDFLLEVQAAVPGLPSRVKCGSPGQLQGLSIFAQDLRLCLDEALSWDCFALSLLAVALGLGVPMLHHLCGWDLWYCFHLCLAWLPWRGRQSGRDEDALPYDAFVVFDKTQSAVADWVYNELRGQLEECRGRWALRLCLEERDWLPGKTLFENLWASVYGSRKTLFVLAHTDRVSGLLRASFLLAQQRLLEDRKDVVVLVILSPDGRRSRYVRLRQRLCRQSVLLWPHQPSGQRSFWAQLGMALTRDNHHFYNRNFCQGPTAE
Experiment: TLR9 inhibition reporter assay (HEK-Blue SEAP reporter)
Conditions: HEK-Blue cells overexpressing human TLR9; ODN2006 5 nM; 22 hour incubation
property name: IC50 (nM)
The figure you give is taken to be in nM; do not add the unit.

Some solved cases for reference:
Input line: Need IC50 of COc1ccc(-c2[nH]c3ccc(Nc4ccc(OCCN5CCCC5)cc4)cc3c2C(C)C)cc1OC [Example 106] , thanks.
Output line: 1430

Input line: Next molecule: CCc1c(-c2ccc(OC)c(OC)c2)[nH]c2ccc(N3CCCN(C4CCN(C(C)C)CC4)CC3)cc12 [Example 180]
Output line: 652

Input line: Another molecule to look at: CCc1c(-c2ccc(OC)c(OC)c2)[nH]c2ccc(N3CCN(CCNC)CC3)cc12 [Example 140]
Output line: 3940

Next:
Input line: Bench note: what IC50 did COc1ccc(-c2[nH]c3ccc(N4CCC(N5CC(O)CC5=O)CC4)cc3c2C(C)C)cc1OC (stereo not shown) [Example 116] show?
Output line: 18800

Input line: Now give it for CCc1c(-c2ccc(OC)c(OC)c2)[nH]c2ccc(NC3CCN(C4CCN(C)CC4)CC3)cc12 [Example 125] too.
Output line: 758

Input line: Next molecule up: COc1ccc(-c2[nH]c3ccc(N4CCC(NC5CCN(C)CC5)CC4)cc3c2C(C)C)cc1OC [Example 79]
Output line: 640

Input line: Now this one: Cc1cc(-c2[nH]c3ccc(N4CCC(N5CCN(C(C)C)CC5)C4=O)cc3c2C(C)C)cc(C)n1 (single isomer, unassigned) [Example 5]
Output line: 597

====

Reported IC50 values for a set of compounds
Biological target: human TLR8 (Homo sapiens, UniProt Q9NR97)
Sequence (Q9NR97 27-1041): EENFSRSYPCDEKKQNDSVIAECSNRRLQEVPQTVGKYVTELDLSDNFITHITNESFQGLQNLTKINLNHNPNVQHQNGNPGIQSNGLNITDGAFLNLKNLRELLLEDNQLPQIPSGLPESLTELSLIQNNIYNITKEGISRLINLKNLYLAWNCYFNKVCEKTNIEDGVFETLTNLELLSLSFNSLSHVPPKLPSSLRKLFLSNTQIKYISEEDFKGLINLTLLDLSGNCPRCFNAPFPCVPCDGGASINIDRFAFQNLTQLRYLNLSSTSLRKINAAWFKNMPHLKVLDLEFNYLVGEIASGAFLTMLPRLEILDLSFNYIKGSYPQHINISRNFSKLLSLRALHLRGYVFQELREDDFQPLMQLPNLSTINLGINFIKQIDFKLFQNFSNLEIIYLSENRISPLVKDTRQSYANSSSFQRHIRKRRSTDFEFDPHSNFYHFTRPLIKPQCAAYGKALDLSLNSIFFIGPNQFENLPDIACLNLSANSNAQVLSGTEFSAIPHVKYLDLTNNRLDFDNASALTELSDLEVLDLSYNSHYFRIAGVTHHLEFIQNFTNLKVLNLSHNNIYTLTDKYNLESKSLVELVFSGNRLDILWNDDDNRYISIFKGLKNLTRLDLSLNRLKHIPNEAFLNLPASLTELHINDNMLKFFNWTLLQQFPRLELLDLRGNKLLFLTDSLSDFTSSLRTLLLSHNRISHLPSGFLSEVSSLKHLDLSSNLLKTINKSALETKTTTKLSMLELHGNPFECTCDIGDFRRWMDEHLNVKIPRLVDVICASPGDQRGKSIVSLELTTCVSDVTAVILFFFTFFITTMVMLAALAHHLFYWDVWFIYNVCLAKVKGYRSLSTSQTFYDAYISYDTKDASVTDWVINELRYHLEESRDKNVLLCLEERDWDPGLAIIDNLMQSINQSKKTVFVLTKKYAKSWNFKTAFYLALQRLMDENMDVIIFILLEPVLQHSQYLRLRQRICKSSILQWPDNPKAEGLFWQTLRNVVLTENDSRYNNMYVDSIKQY
Assay: TLR8 inhibition reporter assay (HEK-Blue SEAP reporter)
Settings: HEK-Blue cells overexpressing human TLR8; R848 15.9 μM; 22 hour incubation
Answer format reminder: number followed by unit.

Input line: Give the measured IC50 of `CCc1c(-c2ccc(OC)c(OC)c2)[nH]c2cc(C)c(N3CCC4(CC3)CCN(C(C)C)CC4)cc12` .
Output line: 1590 nM

Input line: Also check `CCc1c(-c2cc(OC)nc(OC)c2)[nH]c2ccc(N3CCN(C4CCN(C)CC4)CC3)cc12`
Output line: 6.6 nM

Input line: Request: COc1ccc(-c2[nH]c3ccc(N4CCC(N5CC(O)CC5=O)CC4)cc3c2C(C)C)cc1OC (stereo not shown)
Output line: 94 nM

Here is the next item to consider.
Input line: Record request: IC50 value, item `Cc1cc2[nH]c(-c3ccnc4[nH]ncc34)c(C(C)C)c2cc1N1CCN(C2CCN(C(C)C)CC2)CC1`
Output line: 11 nM
